Assay target: human EGF-R (Homo sapiens, UniProt P00533)
Construct: expressed in transfected cells; host or cells: F/L-HERc cells: murine IL-3-dependent line FDC-P1 infected with recombinant retrovirus (LXSN vector, GP+E86 packaging line) carrying human EGF-R cDNA
Sequence (P00533 25-1210): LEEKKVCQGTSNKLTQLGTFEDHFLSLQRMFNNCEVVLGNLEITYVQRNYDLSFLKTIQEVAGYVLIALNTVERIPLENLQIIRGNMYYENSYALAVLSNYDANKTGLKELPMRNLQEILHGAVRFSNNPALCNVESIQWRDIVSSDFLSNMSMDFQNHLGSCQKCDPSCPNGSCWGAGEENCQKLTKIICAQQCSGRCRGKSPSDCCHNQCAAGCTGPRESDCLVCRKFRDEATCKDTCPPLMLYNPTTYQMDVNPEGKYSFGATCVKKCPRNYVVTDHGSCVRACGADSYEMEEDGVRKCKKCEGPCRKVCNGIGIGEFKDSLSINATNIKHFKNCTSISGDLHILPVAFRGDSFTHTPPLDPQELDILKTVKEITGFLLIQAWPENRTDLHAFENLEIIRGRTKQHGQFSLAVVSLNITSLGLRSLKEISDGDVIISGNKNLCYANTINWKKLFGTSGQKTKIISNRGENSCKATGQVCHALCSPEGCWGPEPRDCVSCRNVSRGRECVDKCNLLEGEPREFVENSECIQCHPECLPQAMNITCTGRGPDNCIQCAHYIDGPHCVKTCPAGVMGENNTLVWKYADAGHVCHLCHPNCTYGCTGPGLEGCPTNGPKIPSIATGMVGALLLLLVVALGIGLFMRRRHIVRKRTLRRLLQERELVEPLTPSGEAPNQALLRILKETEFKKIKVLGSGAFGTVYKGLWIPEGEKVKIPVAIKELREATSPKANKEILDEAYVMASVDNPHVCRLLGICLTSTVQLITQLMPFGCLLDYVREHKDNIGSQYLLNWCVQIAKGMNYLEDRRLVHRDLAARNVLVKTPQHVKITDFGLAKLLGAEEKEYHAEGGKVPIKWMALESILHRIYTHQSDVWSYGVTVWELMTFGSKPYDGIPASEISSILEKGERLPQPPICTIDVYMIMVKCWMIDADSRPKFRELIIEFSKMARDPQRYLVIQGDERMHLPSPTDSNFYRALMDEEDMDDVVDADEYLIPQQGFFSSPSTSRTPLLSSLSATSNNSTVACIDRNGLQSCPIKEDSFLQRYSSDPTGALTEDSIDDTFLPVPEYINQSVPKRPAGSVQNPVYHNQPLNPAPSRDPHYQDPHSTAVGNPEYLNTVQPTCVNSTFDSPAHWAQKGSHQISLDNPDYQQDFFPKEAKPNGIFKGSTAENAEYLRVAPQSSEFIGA
Test method notes: Inhibition of EGF-dependent proliferation of F/L-HERc cells
Type: cell-based
Experimental parameters: human EGF 20 ng/ml, 48 hours
pIC50: −log10 of the molar value.
Quantity: pIC50

a: O[C@H]1CC[C@H](Nc2ncc3ncnc(Nc4cccc(Cl)c4)c3n2)CC1
b: FC(F)(F)Oc1cccc(Nc2ncnc3cnc(NC4CC4)nc23)c1
Ask: // compare: a vs b , metric pIC50, want the smaller Kindly state the label of the option you pick.
Reply: b
(b: 7.30, a: 8.70)

###

Assay target: human EGF-R (Homo sapiens, UniProt P00533)
Test method notes: Inhibition of EGF-dependent proliferation of F/L-HERc cells
Experimental parameters: human EGF 20 ng/ml, 48 hours
Quantity: IC50 (nM)

# annotated cases, reported IC50 shown
[[record]]
molecule = "Cc1cccc(Nc2ncnc3cnc(N4CCOCC4)nc23)c1 [1(19)]"
unit_of_measure = "nM"
value_measured = 50

[[record]]
molecule = "Fc1ccc(Nc2ncnc3cnc(NCCN4CCOCC4)nc23)cc1Cl [1(129)]"
unit_of_measure = "nM"
value_measured = 8

[[record]]
molecule = "Cc1cccc(Nc2ncnc3cnc(N[C@H]4CC[C@H](NC(=O)OC(C)(C)C)CC4)nc23)c1 [1(108)]"
unit_of_measure = "nM"
value_measured = 50


P: Cc1cccc(Nc2ncnc3cnc(N[C@H]4CC[C@H](O)CC4)nc23)c1 [1(72)]
Q: O[C@H]1CC[C@H](Nc2ncc3ncnc(Nc4ccc(F)c(Cl)c4)c3n2)CC1 [1(204)]
R: Brc1cccc(Nc2ncnc3cncnc23)c1 [4(1)]
Ask: Order the records by IC50, with each subsequent value no larger than the one before. # answer = labels listed in requested order
Reply: R, P, Q
(R: 2000 nM, P: 3 nM, Q: 0.8 nM)

Where do these numbers come from? They come from patent US5707989A.
